Listed below: PBM E-score values for each entry.
# assay_system: Pdr3 (UniProt P33200)
# Sequence: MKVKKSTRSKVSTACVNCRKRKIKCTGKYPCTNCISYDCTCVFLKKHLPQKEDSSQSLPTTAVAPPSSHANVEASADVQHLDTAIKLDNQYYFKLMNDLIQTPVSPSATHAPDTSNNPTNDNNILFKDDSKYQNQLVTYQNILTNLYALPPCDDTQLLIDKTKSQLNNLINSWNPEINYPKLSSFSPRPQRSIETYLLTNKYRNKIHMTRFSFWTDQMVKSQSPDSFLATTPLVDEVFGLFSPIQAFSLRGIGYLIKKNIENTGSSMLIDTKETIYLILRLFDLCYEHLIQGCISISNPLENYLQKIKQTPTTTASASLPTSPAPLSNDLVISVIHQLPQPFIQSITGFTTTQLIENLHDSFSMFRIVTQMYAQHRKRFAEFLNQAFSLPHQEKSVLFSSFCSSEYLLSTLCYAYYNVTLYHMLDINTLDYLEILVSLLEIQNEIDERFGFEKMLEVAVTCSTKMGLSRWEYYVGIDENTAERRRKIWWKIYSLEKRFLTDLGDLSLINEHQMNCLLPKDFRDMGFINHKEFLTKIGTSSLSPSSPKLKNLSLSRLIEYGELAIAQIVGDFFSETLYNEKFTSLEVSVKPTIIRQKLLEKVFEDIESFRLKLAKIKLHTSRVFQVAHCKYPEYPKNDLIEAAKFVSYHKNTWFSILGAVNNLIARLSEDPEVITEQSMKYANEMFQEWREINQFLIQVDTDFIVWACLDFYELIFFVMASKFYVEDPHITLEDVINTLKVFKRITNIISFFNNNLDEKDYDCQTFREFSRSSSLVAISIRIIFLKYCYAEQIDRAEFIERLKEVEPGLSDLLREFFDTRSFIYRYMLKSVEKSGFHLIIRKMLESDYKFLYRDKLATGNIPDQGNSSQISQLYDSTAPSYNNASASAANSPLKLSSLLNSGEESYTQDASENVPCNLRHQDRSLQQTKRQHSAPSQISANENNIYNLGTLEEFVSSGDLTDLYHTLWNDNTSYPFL
# test_details: PBM E-score (8-mer binding enrichment) (E-score (-0.5 to 0.5)); higher = stronger / more preferred TF binding
# condition_summary: protein concentration: 200 nM; construct: GST-full length
Whole data set: some 33,000 sequences, median “E-score (-0.5 to 0.5)” near -0.035, cut for the highest 2% near 0.35. Shown is part of a subset that was picked to be rich in the highest values.
// return a plain number; no unit text

Before answering, review these 8 worked examples.
IN: Quick check: PBM E-score on Pdr3 (UniProt P33200), item CCTGTAGC ?
OUT: -0.282

IN: Quick check: PBM E-score on Pdr3 (UniProt P33200), item ACGGCGCC ?
OUT: 0.243

IN: Quick check: PBM E-score on Pdr3 (UniProt P33200), item CGCCGTCC ?
OUT: 0.115

IN: Quick check: PBM E-score on Pdr3 (UniProt P33200), item GGGAATTA ?
OUT: 0.118

IN: Quick check: PBM E-score on Pdr3 (UniProt P33200), item CCCAACTC ?
OUT: 0.16

IN: Quick check: PBM E-score on Pdr3 (UniProt P33200), item TAAATTAA ?
OUT: 0.0873

IN: Quick check: PBM E-score on Pdr3 (UniProt P33200), item AGGAAGCA ?
OUT: -0.16

IN: Quick check: PBM E-score on Pdr3 (UniProt P33200), item CGATAGGC ?
OUT: -0.216

Next:
IN: Quick check: PBM E-score on Pdr3 (UniProt P33200), item GCGGCGCC ?
OUT: 0.353

IN: Quick check: PBM E-score on Pdr3 (UniProt P33200), item CTGAATTC ?
OUT: -0.136

IN: Quick check: PBM E-score on Pdr3 (UniProt P33200), item GGAAGATA ?
OUT: 0.234

IN: Quick check: PBM E-score on Pdr3 (UniProt P33200), item ATATCGAT ?
OUT: 0.104

IN: Quick check: PBM E-score on Pdr3 (UniProt P33200), item AAATCTAT ?
OUT: -0.00749

IN: Quick check: PBM E-score on Pdr3 (UniProt P33200), item ATGAGCTG ?
OUT: -0.0649

IN: Quick check: PBM E-score on Pdr3 (UniProt P33200), item CGGAATTA ?
OUT: 0.43

IN: Quick check: PBM E-score on Pdr3 (UniProt P33200), item CCGGACGC ?
OUT: 0.33

IN: Quick check: PBM E-score on Pdr3 (UniProt P33200), item ACGGACGG ?
OUT: 0.245

IN: Quick check: PBM E-score on Pdr3 (UniProt P33200), item AAGGCCAG ?
OUT: -0.0965

IN: Quick check: PBM E-score on Pdr3 (UniProt P33200), item CCGGACGA ?
OUT: 0.36

IN: Quick check: PBM E-score on Pdr3 (UniProt P33200), item AGGAATTC ?
OUT: -0.00951
